target: Ghrelin receptor (Homo sapiens, UniProt Q92847); experiment: Receptor Selection and Amplification Technology (R-SAT) assay; type: cell-based; set-up: expressed in transfected cells; host or cells: NIH3T3; conditions: read-out: RSAT Eff(%)
Sequence (Q92847 whole entry): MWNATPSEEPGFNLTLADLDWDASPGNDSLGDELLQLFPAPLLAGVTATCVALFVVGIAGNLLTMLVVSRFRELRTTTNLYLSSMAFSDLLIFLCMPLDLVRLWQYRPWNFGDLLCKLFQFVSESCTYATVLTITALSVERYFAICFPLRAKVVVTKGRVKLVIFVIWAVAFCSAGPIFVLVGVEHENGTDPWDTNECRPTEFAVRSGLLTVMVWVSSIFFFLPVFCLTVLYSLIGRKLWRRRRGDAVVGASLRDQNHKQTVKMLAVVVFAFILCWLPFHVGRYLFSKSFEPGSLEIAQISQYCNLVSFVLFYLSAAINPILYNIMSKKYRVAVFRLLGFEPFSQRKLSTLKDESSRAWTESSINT
Emax overview
metric: Emax

| compound | study-system | metric | observed |
| --- | --- | --- | --- |
| CC(=O)c1cn(CCCN2CCN(CCOc3ccc(Cl)cc3)CC2)c2c(Br)cccc12 | Ghrelin receptor (Homo sapiens, UniProt Q92847) | Emax | 12% |
| COc1cccc2c(C(=O)c3ccccc3)cn(CCCN3CCN(CCOc4ccccc4)CC3)c12 | Ghrelin receptor (Homo sapiens, UniProt Q92847) | Emax | 98% |
| COc1cccc2c(C(=O)Cc3ccccc3)cn(CCCN3C4CCC3CC(CC(=O)c3ccc(Cl)cc3)C4)c12 (stereo not drawn) | Ghrelin receptor (Homo sapiens, UniProt Q92847) | Emax | 167% |
| COc1cccc2c(C(=O)NCc3cccc(Cl)c3)cn(CCCN3CCN(c4ncc(C(F)(F)F)cc4Cl)CC3)c12 | Ghrelin receptor (Homo sapiens, UniProt Q92847) | Emax | 107% |
| CC(=O)c1cn(CCCNC2Cc3ccccc3C2)c2c(C)cccc12 | Ghrelin receptor (Homo sapiens, UniProt Q92847) | Emax | 70% |
| COc1cccc2c(C(=O)c3ccccc3)cn(CCCN3C4CCC3CC(CCc3ccc(Cl)cc3)C4)c12 (stereo not drawn) | Ghrelin receptor (Homo sapiens, UniProt Q92847) | Emax | 94% |
| CC(=O)c1cn(CCCN2C3CCC2CC(CC(=O)c2ccc(Cl)cc2)C3)c2c(Br)cccc12 (stereo not drawn) | Ghrelin receptor (Homo sapiens, UniProt Q92847) | Emax | 33% |
| CC(=O)c1cn(CC(C)CN2CCC(C(=O)c3ccccc3)CC2)c2ccccc12 (stereo not drawn) | Ghrelin receptor (Homo sapiens, UniProt Q92847) | Emax | 2% |
| COc1cccc2c(C(=O)NCc3cccc(Cl)c3)cn(CCCN3CCC(Oc4ccc(F)cc4)CC3)c12 | Ghrelin receptor (Homo sapiens, UniProt Q92847) | Emax | 106% |

* * *

Emax overview
target: Ghrelin receptor (Homo sapiens); assay: Receptor Selection and Amplification Technology (R-SAT) assay; assay type: cell-based; design: expressed in transfected cells; host or cells: NIH3T3; conditions: percent inhibition at saturating ligand, normalized to reference ligand Substance P analog = 100%; read-out: RSAT Eff(%)

| compound | reading-unit | Emax |
| --- | --- | --- |
| CCCCC1CCN(CC(C)Cn2c(=O)sc3ccccc32)CC1 (stereo not drawn) | % | 84 |
| COc1ccccc1C1CCN(CCCn2cc(C(C)=O)c3ccccc32)CC1 [drawing 533] | % | 109 |
| CCCCC(=O)c1cn(CCCN2CCC(Oc3ccccc3Cl)CC2)c2ccc(OC)cc12 | % | 92 |
| COc1cccc2c(C#N)cn(CCCN3C4CCC3CC(CC(=O)c3ccc(Cl)cc3)C4)c12 (stereo not drawn) | % | 12 |
| CC(=O)c1cn(CCCNCCOc2ccccc2)c2c(Cl)cccc12 | % | 84 |
| COc1ccc2c(C(C)=O)cn(CCCN3CCC(Oc4ccccc4Cl)CC3)c2c1 | % | 88 |
| CC(=O)c1cn(CCCN2C3CCC2CC(Oc2ccccc2Cl)C3)c2c(C)cccc12 (stereo not drawn) | % | 101 |
| CC(=O)c1cn(CCCN2CCC(c3nc(-c4ccccc4)no3)CC2)c2c(Br)cccc12 | % | 69 |
| CC(=O)c1cn(CCCN2C3CCC2CC(CCc2ccc(Cl)cc2)C3)c2c(Cl)cccc12 (stereo not drawn) | % | 122 |
| CC(=O)c1cn(CCCN2CCCN(CCc3ccccc3)CC2)c2ncccc12 | % | 84 |
| COc1ccccc1C1CCN(CC(C)Cn2cc(C(C)=O)c3ccccc32)CC1 (stereo not drawn) | % | 64 |
| O=C(c1cn(CCCN2C3CCC2CC(Oc2ccccc2Cl)C3)c2ncccc12)C(F)(F)F (stereo not drawn) | % | 23 |
| COc1cccc2c(C#N)cn(CCCN3CCCC(Oc4ccc(Cl)cc4)C3)c12 (stereo not drawn) | % | 48 |
| CCCCC1CCN(CCCn2cc(CCC(C)=O)c3ccccc32)CC1 | % | 76 |
| CCCCC1CCN(CCCn2cc(C(C)=O)c3cc(OC)ccc32)CC1 | % | 118 |
| CC(=O)c1cn(CC(O)CN2CCC(Oc3ccc(F)cc3)CC2)c2ccccc12 (stereo not drawn) | % | 74 |
| CC(=O)c1cn(CCCN2C3CCC2CC(CC(=O)c2ccc(Cl)cc2)C3)c2ncccc12 (stereo not drawn) | % | 11 |
| COc1cccc2c(C#N)cn(CCCN3CCC(Oc4cccc(Cl)c4)CC3)c12 | % | 162 |
| COc1cccc2c(C#N)cn(CCCN3CCCN(Cc4ccccc4Cl)CC3)c12 | % | 137 |
| COc1cccc2c(C(C)=O)cn(CCCN3CCC(O)(Cc4ccccc4)CC3)c12 | % | 106 |
| CC(=O)c1cn(CCCN2CCN(C(C)c3ccccc3)CC2)c2cc(Br)ccc12 (stereo not drawn) | % | 93 |

* * *

biological target: Ghrelin receptor (Homo sapiens); assay: Receptor Selection and Amplification Technology (R-SAT) assay; type: cell-based; set-up: expressed in transfected cells; host or cells: NIH3T3; conditions: percent inhibition at saturating ligand, normalized to reference ligand Substance P analog = 100%; read-out: RSAT Eff(%)
Emax overview
metric: Emax (%)

| compound | metric | observed |
| --- | --- | --- |
| CC(=O)c1cn(CCCN2CCC(Oc3cccc(Cl)c3)CC2)c2c(C#N)cccc12 | Emax | 101 |
| CC(=O)c1cn(CC(O)CN2CCC(Oc3ccc(Cl)cc3)CC2)c2ccccc12 (centres unmarked) | Emax | 73 |
| COc1ccc2[nH]c3c(c2c1)CCN(CC(C)Cn1c(=O)sc2ccccc21)C3 (centres unmarked) | Emax | -10 |
| CC(=O)c1cn(CCCN2C3CCC2CC(OCC2CC2)C3)c2ccccc12 (centres unmarked) | Emax | 89 |
| CCc1cccc2c(C(C)=O)cn(CCCN3C4CCC3CC(Oc3ccccc3Cl)C4)c12 (centres unmarked) | Emax | 101 |

* * *

target: GHSR1a receptor (Homo sapiens); construct: expressed in transfected cells; host or cells: HEK293 (membranes); assay: 125I-Ghrelin binding assay; conditions: displacement of 125I-ghrelin (0.053 nM), membranes of HEK293 cells transfected with GHSR1a; Cheng-Prussoff; '—' not defined; read-out: Binding pKi (converted)
Sequence (Q92847 whole entry): as above
Sorting guide: entries reporting Ki beneath 100 nM go in the y pile, the rest go in the n pile.

| compound | study-system | class |
| --- | --- | --- |
| COc1cccc2c(C(=O)c3ccccc3)cn(CCCN3CCCN(Cc4ccccc4Cl)CC3)c12 | GHSR1a receptor (Homo sapiens) | y |
| CCCCC1CCN(CCCn2cc(C(C)=O)c3cccc(C)c32)CC1 | GHSR1a receptor (Homo sapiens) | n |
| COc1cccc2c(C(=O)Cc3ccccc3)cn(CCCN3CCN(CCOc4ccccc4)CC3)c12 | GHSR1a receptor (Homo sapiens) | y |
| CCCCC[C@H]1C[C@H]2CC[C@@H](C1)N2CCCn1cc(C(=O)NCC(C)C)c2cccc(OC)c21 | GHSR1a receptor (Homo sapiens) | y |
| COc1cccc2c(C(C)=O)cn(CCCN3CCC(Oc4ccc(Cl)cc4)CC3)c12 [drawing 300] | GHSR1a receptor (Homo sapiens) | n |
| COc1cccc2c(C(=O)C3CC3)cn(CCCN3CCC(Oc4cccc(Cl)c4)CC3)c12 | GHSR1a receptor (Homo sapiens) | y |
| COc1cccc2c(C(=O)c3ccccc3)cn(CCCN3C4CCC3CC(Oc3ccc(F)cc3)C4)c12 (stereo not shown) | GHSR1a receptor (Homo sapiens) | n |
| COc1cccc2c(C(=O)NCc3cccc(Cl)c3)cn(CCCN3C4CCC3CC(Oc3ccccc3Cl)C4)c12 (stereo not shown) | GHSR1a receptor (Homo sapiens) | y |
| COc1cccc2c(C(=O)c3ccccc3)cn(CCCN3CCCN(Cc4ccc(F)cc4)CC3)c12 | GHSR1a receptor (Homo sapiens) | y |
| COc1cccc2c(C(=O)NCc3cccc(Cl)c3)cn(CCCN3CCC(Oc4cccc(Cl)c4)CC3)c12 | GHSR1a receptor (Homo sapiens) | y |
| CC(=O)c1cn(CCCN2CCC(Oc3ccc(F)cc3)CC2)c2c(Cl)cccc12 | GHSR1a receptor (Homo sapiens) | n |
| COc1cccc2c(C(C)=O)cn(CCCN3CCN(c4ncccc4C(F)(F)F)CC3)c12 | GHSR1a receptor (Homo sapiens) | n |
| CC(=O)c1cn(CCCN2C3CCC2CC(CCc2ccccc2)C3)c2c(Br)cccc12 (stereo not shown) | GHSR1a receptor (Homo sapiens) | y |
| COc1cccc2c(C#N)cn(CCCN3CCCC(Cc4ccccc4Cl)C3)c12 (stereo not shown) | GHSR1a receptor (Homo sapiens) | n |
| CCc1cccc2c(C(C)=O)cn(CCCNCCOc3ccccc3)c12 | GHSR1a receptor (Homo sapiens) | y |
| CCCCC1CCN(CCCn2cc(C(C)=O)c3cccc(Br)c32)CC1 | GHSR1a receptor (Homo sapiens) | n |
| CC(=O)c1cn(CCCN2CCC(Oc3ccc(Cl)cc3)CC2)c2c(C)cccc12 | GHSR1a receptor (Homo sapiens) | n |
| CC(=O)c1cn(CCCN2CCCN(Cc3ccccc3Cl)CC2)c2c(Cl)cccc12 | GHSR1a receptor (Homo sapiens) | y |

Where do the numbers come from? From patent US20070213359A1.
